Biological target: T1, Ara h 2 (peanut, UniProt Q6PSU2 22-172)
T1 construct: also called full length Ara h 2
T1 sequence (looked up): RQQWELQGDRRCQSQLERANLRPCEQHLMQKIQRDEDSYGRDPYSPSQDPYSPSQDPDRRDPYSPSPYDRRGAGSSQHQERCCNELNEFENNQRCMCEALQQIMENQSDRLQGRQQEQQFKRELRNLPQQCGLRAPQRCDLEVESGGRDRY
Assay: competition ELISA on coated Ara h 2; competitor: Patient D serum IgE; further: test concentration or dose not given here
recordedEndpoint: % inhibition of IgE binding

Some entries whose results are on file:
h4B2 (antibody, V domains shown, Recombinant human IgG; also called hMAb 4B2) VH: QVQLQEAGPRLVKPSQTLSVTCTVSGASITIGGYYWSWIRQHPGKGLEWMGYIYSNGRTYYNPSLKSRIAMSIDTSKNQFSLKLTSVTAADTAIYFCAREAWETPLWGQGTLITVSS VL: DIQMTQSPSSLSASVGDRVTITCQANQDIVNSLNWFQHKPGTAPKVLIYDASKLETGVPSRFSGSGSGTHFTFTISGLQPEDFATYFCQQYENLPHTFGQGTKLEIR ... 9.23%
h37D5 (antibody, V domains shown, Recombinant human IgG; also called hMAb 37D5) VH: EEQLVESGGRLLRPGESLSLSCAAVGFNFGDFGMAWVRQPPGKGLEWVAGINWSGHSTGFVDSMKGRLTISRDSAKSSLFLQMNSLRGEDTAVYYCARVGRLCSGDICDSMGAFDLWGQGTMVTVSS VL: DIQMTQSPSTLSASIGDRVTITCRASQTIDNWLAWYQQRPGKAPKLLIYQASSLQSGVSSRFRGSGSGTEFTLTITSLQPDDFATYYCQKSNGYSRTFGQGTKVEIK ... 35.5%
h12G10 (antibody, human IgG1, V domains shown, Recombinant human IgG; also called hMAb 12G10) VH: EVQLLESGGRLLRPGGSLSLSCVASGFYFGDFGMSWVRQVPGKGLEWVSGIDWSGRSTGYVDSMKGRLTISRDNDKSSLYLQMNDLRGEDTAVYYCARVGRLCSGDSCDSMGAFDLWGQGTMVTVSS VL: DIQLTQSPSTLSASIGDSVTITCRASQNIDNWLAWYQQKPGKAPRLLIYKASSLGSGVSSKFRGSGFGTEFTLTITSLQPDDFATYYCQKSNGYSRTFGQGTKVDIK ... 35.7%

Next binder, % inhibition of IgE binding to be filled in.
For the binder shown here, h32B10 (antibody, V domains shown, Recombinant human IgG; also called hMAb 32B10) VH: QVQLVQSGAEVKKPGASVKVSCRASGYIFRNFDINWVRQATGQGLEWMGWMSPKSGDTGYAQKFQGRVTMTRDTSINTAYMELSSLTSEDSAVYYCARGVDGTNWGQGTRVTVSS VL: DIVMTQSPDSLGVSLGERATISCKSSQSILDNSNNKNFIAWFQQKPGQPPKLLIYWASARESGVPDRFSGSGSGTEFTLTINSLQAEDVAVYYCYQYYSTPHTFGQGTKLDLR , give the reported % inhibition of IgE binding.
8.5%
